Biological target: T1, DLL4 N-EGF2 (Rattus norvegicus, UniProt D3ZHH1)
T1 chain: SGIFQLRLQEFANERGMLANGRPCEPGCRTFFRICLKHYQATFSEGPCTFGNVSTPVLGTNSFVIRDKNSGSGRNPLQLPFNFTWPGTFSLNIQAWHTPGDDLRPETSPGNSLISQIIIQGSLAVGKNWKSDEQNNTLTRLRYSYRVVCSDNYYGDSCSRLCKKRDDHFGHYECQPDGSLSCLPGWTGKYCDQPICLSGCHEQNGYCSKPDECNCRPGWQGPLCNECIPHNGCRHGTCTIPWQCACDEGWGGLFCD
Test: SPR
pKd: −log10 of the molar value.
endpoint: pKd

{"columns": ["binder", "pKd"],
 "data": [
  ["CLTLL [Notch1 EGF10-14]", 5.07]
]}

a. Notch1 411-530 (protein) QDVDECALGANPCEHAGKCLNTLGSFECQCLQGYTGPRCEIDVNECISNPCQNDATCLDQIGEFQCICMPGYEGVYCEINTDECASSPCLHNGRCVDKINEFLCQCPKGFSGHLCQYDVD
b. MPRLLAPLLCLTLL [Notch1 EGF1-14]
stdin: Select one: a or b . Criterion: greater recorded pKd. Return value: the label identifying the chosen record.
stdout: a
(a: 5.12, b: 4.90)
